Values were extracted from ChEMBL document CHEMBL1126244.

pIC50, Human immunodeficiency virus type 1 protease (Human immunodeficiency virus 1), per-entry values.
Just the number, please; pIC50 means minus log10 of the concentration in mol/L.

// field: pIC50; key: `CC(C)C[C@H](NC(=O)[C@H](Cc1ccc(-c2ccccc2)cc1)C[C@H](O)[C@H](Cc1ccccc1)NC(=O)OC(C)(C)C)C(=O)N[C@@H](Cc1ccccc1)C(N)=O` ; value = 9.37

// field: pIC50; key: `Cc1ccc(C[C@H](C[C@H](O)[C@H](Cc2ccccc2)NC(=O)OC(C)(C)C)C(=O)N[C@H]2c3ccccc3C[C@H]2O)cc1` ; value = 9.54

// field: pIC50; key: C[S+]([O-])c1ccc(C[C@H](C[C@H](O)[C@H](Cc2ccccc2)NC(=O)OC(C)(C)C)C(=O)N[C@H]2c3ccccc3C[C@H]2O)cc1 (stereo partly drawn) ; value = 9.29

// field: pIC50; key: `CC(C)(C)OC(=O)N[C@@H](Cc1ccccc1)[C@@H](O)C[C@@H](Cc1ccc(CO)cc1)C(=O)N[C@H]1c2ccccc2C[C@H]1O` ; value = 9.77

// field: pIC50; key: `CN(C)CCCc1ccc(C[C@H](C[C@H](O)[C@H](Cc2ccccc2)NC(=O)OC(C)(C)C)C(=O)N[C@H]2c3ccccc3C[C@H]2O)cc1` ; value = 9.22

// field: pIC50; key: `CC(C)(C)OC(=O)N[C@@H](Cc1ccccc1)[C@@H](O)C[C@@H](Cc1ccc(CCCN2CCOCC2)cc1)C(=O)N[C@H]1c2ccccc2C[C@H]1O` ; value = 9.37

// field: pIC50; key: `CC(C)(C)OC(=O)N[C@@H](Cc1ccccc1)[C@@H](O)C[C@@H](Cc1ccc(CCCN2CCSCC2)cc1)C(=O)N[C@H]1c2ccccc2C[C@H]1O` ; value = 9.00

// field: pIC50; key: `CC(C)(C)OC(=O)N[C@@H](Cc1ccccc1)[C@@H](O)C[C@@H](Cc1ccc(I)cc1)C(=O)N[C@H]1c2ccccc2C[C@H]1O` ; value = 9.14

// field: pIC50; key: `CC(C)(C)OC(=O)N[C@@H](Cc1ccccc1)[C@@H](O)C[C@@H](Cc1ccc(CCO)cc1)C(=O)N[C@H]1c2ccccc2C[C@H]1O` ; value = 9.80

// field: pIC50; key: `C[C@H](C[C@H](O)[C@H](Cc1ccccc1)NC(=O)OC(C)(C)C)C(=O)N[C@H]1c2ccccc2C[C@H]1O` ; value = 7.20

// field: pIC50; key: `COCCN(CCCc1ccc(C[C@H](C[C@H](O)[C@H](Cc2ccccc2)NC(=O)OC(C)(C)C)C(=O)N[C@H]2c3ccccc3C[C@H]2O)cc1)CCOC` ; value = 9.23

// field: pIC50; key: `CC(C)C[C@H](NC(=O)[C@H](CCCc1ccccc1)C[C@H](O)[C@H](Cc1ccccc1)NC(=O)OC(C)(C)C)C(=O)N[C@@H](Cc1ccccc1)C(N)=O` ; value = 9.44

// field: pIC50; key: `CC(C)(C)OC(=O)N[C@@H](Cc1ccccc1)[C@@H](O)C[C@@H](Cc1ccc(C(F)(F)F)cc1)C(=O)N[C@H]1c2ccccc2C[C@H]1O` ; value = 9.59
